Tested on: HeLa cervical adenocarcinoma cells
procedure-summary: cells
Assay type: cell-based, human
conditions-used: Homo sapiens, HeLa; MTT assay, 24 h exposure, run in triplicate or greater; read-out: IC50, Cervix HeLa
observed-property: IC50 (µM)

compound: COc1cccc2c1C(=O)c1c(O)c3c(c(O)c1C2=O)C[C@@](O)(C(=O)CO)C[C@@H]3O[C@H]1C[C@H](N)[C@H](O)[C@H](C)O1 [Doxorubicin, reference compound]
measured-on: HeLa cervical adenocarcinoma cells
observed-property: IC50
meas-value: 5.4

====

Tested on: SK-BR-3 breast adenocarcinoma cells
procedure-summary: cells
Type: cell-based, human
conditions-used: Homo sapiens, SK-BR-3; MTT assay, 24 h exposure, run in triplicate or greater; read-out: IC50, Breast SK-BR-3

molecule: COc1cccc2c1C(=O)c1c(O)c3c(c(O)c1C2=O)C[C@@](O)(C(=O)CO)C[C@@H]3O[C@H]1C[C@H](N)[C@H](O)[C@H](C)O1 [Doxorubicin, reference compound]
measured-on: SK-BR-3 breast adenocarcinoma cells
uom: µM
IC50: 0.5
